Biological target: T1, ECF37_2513
T1 chain: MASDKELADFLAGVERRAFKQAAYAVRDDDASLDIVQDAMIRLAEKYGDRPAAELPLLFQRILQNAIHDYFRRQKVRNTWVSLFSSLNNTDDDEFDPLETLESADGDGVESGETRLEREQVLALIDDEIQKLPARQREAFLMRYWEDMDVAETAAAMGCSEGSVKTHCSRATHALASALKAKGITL
Quantity kind: fold repression

{"Binder": "AS02_915 (protein) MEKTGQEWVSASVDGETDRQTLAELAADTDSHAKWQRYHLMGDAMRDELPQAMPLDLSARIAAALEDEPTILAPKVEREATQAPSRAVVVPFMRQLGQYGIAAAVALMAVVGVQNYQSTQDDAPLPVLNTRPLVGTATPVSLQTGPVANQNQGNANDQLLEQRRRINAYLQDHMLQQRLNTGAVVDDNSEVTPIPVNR", "Quantity kind": "fold repression", "Obs value": 2.48}
{"Binder": "AS35_3582 (protein) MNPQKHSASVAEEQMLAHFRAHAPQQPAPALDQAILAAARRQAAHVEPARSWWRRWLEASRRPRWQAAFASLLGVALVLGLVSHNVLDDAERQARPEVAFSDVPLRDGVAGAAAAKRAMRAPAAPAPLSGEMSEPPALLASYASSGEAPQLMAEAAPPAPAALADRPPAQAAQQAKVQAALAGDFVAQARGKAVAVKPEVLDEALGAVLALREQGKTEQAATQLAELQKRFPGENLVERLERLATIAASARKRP", "Quantity kind": "fold repression", "Obs value": 8.97}
{"Binder": "AS03_1244 (protein) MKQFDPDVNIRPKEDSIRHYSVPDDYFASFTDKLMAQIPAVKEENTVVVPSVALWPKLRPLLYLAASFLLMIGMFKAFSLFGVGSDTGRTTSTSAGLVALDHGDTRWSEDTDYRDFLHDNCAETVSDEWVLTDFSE", "Quantity kind": "fold repression", "Obs value": 1.89}

Data credit: paper PMC3817407
